# assayed_system: T1, human DLL3 antigen (human, UniProt Q9NYJ7 27-492, limits assumed)
# T1 construct: also called immobilized human DLL3; recombinant human DLL3
# T1 sequence (looked up): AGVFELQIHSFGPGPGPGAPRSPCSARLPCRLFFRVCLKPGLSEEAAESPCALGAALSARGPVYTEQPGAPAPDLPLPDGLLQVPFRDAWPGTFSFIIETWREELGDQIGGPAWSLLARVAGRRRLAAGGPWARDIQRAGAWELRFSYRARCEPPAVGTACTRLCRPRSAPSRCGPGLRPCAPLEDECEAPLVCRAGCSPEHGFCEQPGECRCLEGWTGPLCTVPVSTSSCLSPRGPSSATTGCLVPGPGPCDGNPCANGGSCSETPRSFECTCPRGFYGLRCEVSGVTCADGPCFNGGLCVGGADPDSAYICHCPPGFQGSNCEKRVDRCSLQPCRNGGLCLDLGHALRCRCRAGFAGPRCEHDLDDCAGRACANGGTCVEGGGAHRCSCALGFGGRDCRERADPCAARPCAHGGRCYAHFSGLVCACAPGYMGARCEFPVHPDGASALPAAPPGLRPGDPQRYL
# measurement_notes: ELISA or flow cytometry screen
readout_type: binding result

State the recorded binding result for this entry: SC16.101 (antibody, V domains shown, murine mAb) VL: QIVLTQSPAIMSASLGERVTMTCTASSSVSSSYLHWYQQKPGSSPKLWIYSTSNLASGVPARFSGSESGTSYSLTISNMEAEDAATYYCHQYHRSPFTFGSGTKLEIK V domain: QVTLKESGPGILQPSQTLSLTCSFSGFSLSTSGMGVGWIRQPSGKGLEWLAHIWWDDVKRYNPALKSRLTISKDASSSQVFLKIASVDTAETATYYCAHILDRAYYFDYWGQGTTLTVTS
binds

State the recorded binding result for this entry: SC16.4 (antibody, V domains shown, murine mAb; also called mAb SC16.4) VH: QIQLVQSGPELKKPGETVKISCKASGYTFTDYSMHWVKQAPGKGLKWMGWINTETGEPGYADDFKGRFAFSLETSASTAYLQINNLKNEDTATYFCARYDGYAMDYWGQGTSVTVSS VL: DIQMTQTTSSLSASLGDRVTISCRASQDISNYLNWYQQKPDGTVKLLIYYTSRLHSGVPSRFSGSGSGTDYSLTISNLELEDIATYFCQQGDMLPWTFGGGTKLEIK
binds

State the recorded binding result for this entry: SC16.29 (antibody, V domains shown, murine mAb) VH: QVQLQQSGAELARPGASVKLSCKASGYTFTDQYINWVKQRTGQGLEWIGEIYPGRGNTYYNEKFKGKATLTADKSSSTAYMQLSSLTSEDSAVYFCAREDGGYDDAWFAYWGQGTLVTVSA VL: QIVLTQSPAIMSASPGEKVTITCSASSSVSYMHWFQQKPGTSPKLWIYTTSNLASGVPARFSGSGSGTSYSLTVSRMEAEDAATYYCQQRSLYPYTFGGGTKVEIK
binds
